target: Receptor-interacting serine/threonine-protein kinase 2 (Homo sapiens); test: Inhibition of fluorescent-labelled ligand binding to human RIP2K preincubated for 10 mins followed by fluorescent-labelled ligand addition and measured after 10 mins by fluorescence polarization assay
Sequence (O43353 whole entry): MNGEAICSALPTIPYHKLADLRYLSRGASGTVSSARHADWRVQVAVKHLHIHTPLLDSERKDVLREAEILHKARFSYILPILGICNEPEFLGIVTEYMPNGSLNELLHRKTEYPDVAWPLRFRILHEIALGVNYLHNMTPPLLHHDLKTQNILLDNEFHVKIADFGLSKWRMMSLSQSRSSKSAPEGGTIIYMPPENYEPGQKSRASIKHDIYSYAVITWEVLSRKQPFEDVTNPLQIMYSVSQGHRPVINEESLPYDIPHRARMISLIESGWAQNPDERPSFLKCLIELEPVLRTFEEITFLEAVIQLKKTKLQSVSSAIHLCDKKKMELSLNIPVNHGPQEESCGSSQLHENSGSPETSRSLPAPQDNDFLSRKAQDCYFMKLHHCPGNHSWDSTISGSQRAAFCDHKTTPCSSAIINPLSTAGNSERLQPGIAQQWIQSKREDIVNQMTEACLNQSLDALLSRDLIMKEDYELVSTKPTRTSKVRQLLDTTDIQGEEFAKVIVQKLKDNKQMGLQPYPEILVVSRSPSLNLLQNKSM
RECORDED_METRIC: IC50 (nM)
Reply with just the number (in nM).

MOLECULE_SMILES	RECORDED_METRIC	QUANTITATIVE_READOUT
CC(C)(C)S(=O)(=O)c1cc2c(Nc3ccc4scnc4c3)ncnc2cc1OCCO	IC50	5

Next:
Query :: // query IC50 value for entry `COc1cc2ncnc(Nc3ccc4scnc4c3)c2cc1S(=O)(=O)C(C)(C)C`
Result :: 4

====

experiment: Half life in human intestinal S9 fraction; type: ADME, subcellular, Intestine
RECORDED_METRIC: half-life
Give the value; after it, write the unit.

Query :: // query half-life value for entry `CC(C)(C)S(=O)(=O)c1cc2c(Nc3ccc4scnc4c3)ncnc2cc1OCCOP(=O)(O)O.[CaH2]`
Result :: 18.3 min

====

experiment: Terminal half life in Gottingen minipig at 1 mg/kg, po or 0.4 mg/kg, iv by LC/MS/MS analysis; assay type: ADME, organism-based, Sus scrofa; details: pig, in vivo, read-out: beta t1/2 (converted)
RECORDED_METRIC: half-life (h)
Reply with just the number (in h).

Query :: // query half-life value for entry `CC(C)(C)S(=O)(=O)c1cc2c(Nc3ccc4scnc4c3)ncnc2cc1OCCO`
Result :: 1.9

====

experiment: Cmax in Sprague-Dawley rat at 2 mg/kg, po by LC/MS/MS analysis; format: ADME, organism-based; set-up: dose 2 mg/kg, route oral; conditions: in vivo
RECORDED_METRIC: Cmax (ng/mL)
Reply with just the number (in ng/mL).

Query :: // query Cmax value for entry `CC(C)(C)S(=O)(=O)c1cc2c(Nc3ccc4scnc4c3)ncnc2cc1OCCO`
Result :: 120

====

assay: Terminal half life in Beagle dog at 2 mg/kg, po or 1.1 mg/kg, iv by LC/MS/MS analysis; format: ADME, organism-based, Canis lupus familiaris; details: in vivo, read-out: beta t1/2 (converted)
RECORDED_METRIC: half-life (h)
Reply with just the number (in h).

Query :: // query half-life value for entry `CC(C)(C)S(=O)(=O)c1cc2c(Nc3ccc4scnc4c3)ncnc2cc1OCCO`
Result :: 5.1

====

experiment: Half life in dog blood; type: ADME, tissue-based, Canis lupus familiaris
RECORDED_METRIC: half-life (min)
Reply with just the number (in min).

Query :: // query half-life value for entry `CC(C)(C)S(=O)(=O)c1cc2c(Nc3ccc4scnc4c3)ncnc2cc1OCCOP(=O)(O)O.[CaH2]`
Result :: 21

====

test: Unbound fraction in rat blood; type: ADME, tissue-based
RECORDED_METRIC: fraction unbound
Field format: numeric only.

Query :: // query fraction unbound value for entry `CC(C)(C)S(=O)(=O)c1cc2c(Nc3ccc4scnc4c3)ncnc2cc1OCCO`
Result :: 0.11

====

Consider the following compounds and their measured AUC readings.
assay: AUC in Sprague-Dawley rat at 2 mg/kg, po by LC/MS/MS analysis; type: ADME, organism-based; details: in vivo
Reply with just the number (in µg·h/mL).

MOLECULE_SMILES	AUC, µg·h/mL
CN(C)C(=O)OCCOc1cc2ncnc(Nc3ccc4scnc4c3)c2cc1S(=O)(=O)C(C)(C)C	0.01

Next:
Query :: // query AUC value for entry `CC(C)(C)S(=O)(=O)c1cc2c(Nc3ccc4scnc4c3)ncnc2cc1OCCO`
Result :: 0.46
